# Plant response rating, Soybean listing for each entry below
- System: soybean
- Experiment notes: Test B preemergence/postemergence greenhouse plant response rating 0 to 10
- Assay type: in vivo, Glycine max
- Conditions: Rate 200 g/ha, POSTEMERGENCE; 0 to 10 scale
- Source text: Seeds of barley (Hordeum vulgare), barnyardgrass (Echinochloa crus-galli), bedstraw (Galium aparine), blackgrass (Alopecurus myosuroides), […] […] Treated plants and controls were maintained in a greenhouse for twelve to sixteen days, after which all species were compared to controls and visually evaluated. […]

Field: example entries. Status: answers known.
compound=Fc1cc(Cl)ccc1-c1nn2c(c1Br)CCCC2 metric_name="Plant response rating, Soybean" reported=8
compound=CCC(=O)Oc1cc(-c2nn3c(c2Cl)CCCC3)c(F)cc1Cl metric_name="Plant response rating, Soybean" reported=7

Query: # value lookup — system soybean, readout Plant response rating, Soybean, item C#CC(C)Oc1cc(-c2nn3c(c2Br)CCCC3)c(F)cc1Cl (centres unmarked)
Reply: 8

Query: # value lookup — system soybean, readout Plant response rating, Soybean, item `CC(C)(C)C(=O)COc1cc(-c2nn3c(c2Cl)CCCC3)c(Cl)cc1Cl`
Reply: 7

Query: # value lookup — system soybean, readout Plant response rating, Soybean, item C#CC(C)Oc1cc(-c2nn3c(c2Cl)CCCC3)c(F)cc1Cl (centres unmarked)
Reply: 9

Query: # value lookup — system soybean, readout Plant response rating, Soybean, item `COCOc1cc(-c2nn3c(c2Cl)CCCC3)c(F)cc1Cl`
Reply: 9

Query: # value lookup — system soybean, readout Plant response rating, Soybean, item `Clc1cc(Cl)c(-c2nn3c(c2Cl)CCCC3)cc1OCC1CC1`
Reply: 5

Query: # value lookup — system soybean, readout Plant response rating, Soybean, item `C=CCOc1cc(-c2nn3c(c2Cl)CCCC3)c(Cl)cc1Cl`
Reply: 7

---

- Tested on: rice
- Experiment notes: Test B preemergence/postemergence greenhouse plant response rating 0 to 10
- Assay type: in vivo, Oryza sativa
- Conditions: Rate 200 g/ha, POSTEMERGENCE; 0 to 10 scale
Metric name: Plant response rating, Rice
Please reply with the value in numeric form only.

compound="Fc1cc(Cl)c(OCCCl)cc1-c1nn2c(c1Cl)CCCC2 [Compound 49]" metric_name="Plant response rating, Rice" reported=6
compound="CC(C)OC(=O)c1cc(-c2nn3c(c2Cl)CCCC3)c(F)cc1Cl [Compound 44]" metric_name="Plant response rating, Rice" reported=9
compound="COCOc1cc(-c2nn3c(c2Br)CCCC3)c(F)cc1Cl [Compound 65]" metric_name="Plant response rating, Rice" reported=6

Query: For the compound shown here, C=CCOc1cc(-c2nn3c(c2Cl)CCCC3)c(Cl)cc1Cl [Compound 71] , give the reported Plant response rating, Rice.
Reply: 5

Query: For the compound shown here, Clc1ccc(-c2nn3c(c2Cl)CCCC3)c(Cl)c1 [Compound 35] , give the reported Plant response rating, Rice.
Reply: 6

Query: For the compound shown here, COCCOc1cc(-c2nn3c(c2Cl)CCCC3)c(Cl)cc1Cl [Compound 72] , give the reported Plant response rating, Rice.
Reply: 6

---

# Plant response rating, Giant foxtail listing for each entry below
- Tested on: giant foxtail
- Experiment notes: Test B preemergence/postemergence greenhouse plant response rating 0 to 10
- Type: in vivo, Setaria faberii
- Conditions: Rate 200 g/ha, POSTEMERGENCE; 0 to 10 scale
Please reply with the value in numeric form only.

Field: example entries. Status: answers known.
compound=CC(C)COc1cc(-c2nn3c(c2Cl)CCCC3)c(F)cc1Cl test_target="giant foxtail" metric_name="Plant response rating, Giant foxtail" reported=5
compound="C#CC(C)Oc1cc(-c2nn3c(c2Br)CCCC3)c(F)cc1Cl (stereo not shown)" test_target="giant foxtail" metric_name="Plant response rating, Giant foxtail" reported=6
compound=COc1cc(-c2nn3c(c2Cl)CCCC3)c(F)cc1Cl test_target="giant foxtail" metric_name="Plant response rating, Giant foxtail" reported=6
compound=COCCOc1cc(-c2nn3c(c2Cl)CCCC3)c(Cl)cc1Cl test_target="giant foxtail" metric_name="Plant response rating, Giant foxtail" reported=5
compound=Fc1cc(Cl)c(OCCCl)cc1-c1nn2c(c1Cl)CCCC2 test_target="giant foxtail" metric_name="Plant response rating, Giant foxtail" reported=6
compound=COC(=O)c1cc(-c2nn3c(c2Cl)CCCC3)c(F)cc1Cl test_target="giant foxtail" metric_name="Plant response rating, Giant foxtail" reported=6

Kindly review the next compound as well.
Query: For the compound shown here, `FCCCOc1cc(-c2nn3c(c2Cl)CCCC3)c(F)cc1Cl` , give the reported Plant response rating, Giant foxtail.
Reply: 6
